Could you please report measured switch fluorescence ratio for the items listed next?
System: ATP;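 further: ATP exposure 15 min at 22 °C before imaging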
Test: switch fluorescence ratio, 500 uM ATP over buffer (Cy3 cluster intensity, sum of 5 cycles each) (fold (ratio)); higher = stronger signal-on switching upon ATP binding; sequences stand for … in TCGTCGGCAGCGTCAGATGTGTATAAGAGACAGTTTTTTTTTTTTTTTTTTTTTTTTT…TC
Settings: aptamer strand: ATP DNA aptamer (quencher-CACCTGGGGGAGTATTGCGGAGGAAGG + anchor), 100 nM annealed; ATP concentration: 500 uM

[Q] I'm curious: which switch fluorescence ratio was measured for TATTATTGGT tested on ATP?;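 further: ATP exposure 15 min at 22 °C before imaging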
[A] 0.992

[Q] I'm curious: which switch fluorescence ratio was measured for CGATGGTCGT tested on ATP?;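 further: ATP exposure 15 min at 22 °C before imaging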
[A] 0.975

[Q] I'm curious: which switch fluorescence ratio was measured for GGGATATTAG tested on ATP?;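 further: ATP exposure 15 min at 22 °C before imaging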
[A] 0.994

[Q] I'm curious: which switch fluorescence ratio was measured for TGTTAGTTAT tested on ATP?;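 further: ATP exposure 15 min at 22 °C before imaging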
[A] 1.06

[Q] I'm curious: which switch fluorescence ratio was measured for GACTCTGGGA tested on ATP?;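 further: ATP exposure 15 min at 22 °C before imaging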
[A] 1.11

[Q] I'm curious: which switch fluorescence ratio was measured for AAGTCGCGGA tested on ATP?;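 further: ATP exposure 15 min at 22 °C before imaging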
[A] 0.999

[Q] I'm curious: which switch fluorescence ratio was measured for TAAAGTAGAT tested on ATP?;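 further: ATP exposure 15 min at 22 °C before imaging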
[A] 0.988

[Q] I'm curious: which switch fluorescence ratio was measured for AGATAGAGTA tested on ATP?;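 further: ATP exposure 15 min at 22 °C before imaging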
[A] 1.01

[Q] I'm curious: which switch fluorescence ratio was measured for ATAAGGAGGA tested on ATP?;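 further: ATP exposure 15 min at 22 °C before imaging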
[A] 1.1

[Q] I'm curious: which switch fluorescence ratio was measured for AGAATTCCGT tested on ATP?;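 further: ATP exposure 15 min at 22 °C before imaging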
[A] 0.992

[Q] I'm curious: which switch fluorescence ratio was measured for GTTTTAAGGC tested on ATP?;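 further: ATP exposure 15 min at 22 °C before imaging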
[A] 1.01

[Q] I'm curious: which switch fluorescence ratio was measured for GGTAAAAATT tested on ATP?;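 further: ATP exposure 15 min at 22 °C before imaging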
[A] 0.985

[Q] I'm curious: which switch fluorescence ratio was measured for GAGGGACCGT tested on ATP?;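 further: ATP exposure 15 min at 22 °C before imaging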
[A] 0.995

[Q] I'm curious: which switch fluorescence ratio was measured for CCAGGTGTTG tested on ATP?;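 further: ATP exposure 15 min at 22 °C before imaging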
[A] 3.12

[Q] I'm curious: which switch fluorescence ratio was measured for TTCTGGCACA tested on ATP?;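 further: ATP exposure 15 min at 22 °C before imaging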
[A] 1.02

[Q] I'm curious: which switch fluorescence ratio was measured for ACAGTCAGAT tested on ATP?;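 further: ATP exposure 15 min at 22 °C before imaging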
[A] 1.06

[Q] I'm curious: which switch fluorescence ratio was measured for TGACTGTATT tested on ATP?;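 further: ATP exposure 15 min at 22 °C before imaging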
[A] 1.14

[Q] I'm curious: which switch fluorescence ratio was measured for AGGTTGAGAT tested on ATP?;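 further: ATP exposure 15 min at 22 °C before imaging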
[A] 1.04

[Q] I'm curious: which switch fluorescence ratio was measured for TCGTAAAATT tested on ATP?;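 further: ATP exposure 15 min at 22 °C before imaging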
[A] 0.986

[Q] I'm curious: which switch fluorescence ratio was measured for AATTAGTCTA tested on ATP?;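 further: ATP exposure 15 min at 22 °C before imaging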
[A] 1.01

[Q] I'm curious: which switch fluorescence ratio was measured for TTTGTCAAAA tested on ATP?;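 further: ATP exposure 15 min at 22 °C before imaging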
[A] 1

[Q] I'm curious: which switch fluorescence ratio was measured for TATCACACTG tested on ATP?;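 further: ATP exposure 15 min at 22 °C before imaging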
[A] 1.09

[Q] I'm curious: which switch fluorescence ratio was measured for GACACGGCAT tested on ATP?;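 further: ATP exposure 15 min at 22 °C before imaging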
[A] 1.13

[Q] I'm curious: which switch fluorescence ratio was measured for GGACCGGTGA tested on ATP?;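 further: ATP exposure 15 min at 22 °C before imaging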
[A] 1.01

[Q] I'm curious: which switch fluorescence ratio was measured for AAGGGGGGCT tested on ATP?;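 further: ATP exposure 15 min at 22 °C before imaging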
[A] 0.996

[Q] I'm curious: which switch fluorescence ratio was measured for TGTACGTAGG tested on ATP?;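 further: ATP exposure 15 min at 22 °C before imaging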
[A] 1.24

[Q] I'm curious: which switch fluorescence ratio was measured for CACTGGAGAA tested on ATP?;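 further: ATP exposure 15 min at 22 °C before imaging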
[A] 1.04

[Q] I'm curious: which switch fluorescence ratio was measured for GTTGTCGGGG tested on ATP?;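 further: ATP exposure 15 min at 22 °C before imaging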
[A] 1.02

[Q] I'm curious: which switch fluorescence ratio was measured for GAAATACGCT tested on ATP?;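 further: ATP exposure 15 min at 22 °C before imaging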
[A] 1.08

[Q] I'm curious: which switch fluorescence ratio was measured for TAGTGAAGGC tested on ATP?;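 further: ATP exposure 15 min at 22 °C before imaging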
[A] 0.988

[Q] I'm curious: which switch fluorescence ratio was measured for CTGGTGTCAC tested on ATP?;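 further: ATP exposure 15 min at 22 °C before imaging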
[A] 1.01

[Q] I'm curious: which switch fluorescence ratio was measured for AACTTTTACG tested on ATP?;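 further: ATP exposure 15 min at 22 °C before imaging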
[A] 1.07

[Q] I'm curious: which switch fluorescence ratio was measured for ATTAGCTCGC tested on ATP?;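 further: ATP exposure 15 min at 22 °C before imaging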
[A] 0.97

[Q] I'm curious: which switch fluorescence ratio was measured for ATATTGTAAC tested on ATP?;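 further: ATP exposure 15 min at 22 °C before imaging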
[A] 0.98

[Q] I'm curious: which switch fluorescence ratio was measured for TTTGTTTGGG tested on ATP?;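 further: ATP exposure 15 min at 22 °C before imaging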
[A] 0.998

[Q] I'm curious: which switch fluorescence ratio was measured for TGGGGGTGTA tested on ATP?;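 further: ATP exposure 15 min at 22 °C before imaging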
[A] 1.05

[Q] I'm curious: which switch fluorescence ratio was measured for GTTGTTAGCG tested on ATP?;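 further: ATP exposure 15 min at 22 °C before imaging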
[A] 1

[Q] I'm curious: which switch fluorescence ratio was measured for GGTTTAATTG tested on ATP?;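 further: ATP exposure 15 min at 22 °C before imaging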
[A] 1.03

[Q] I'm curious: which switch fluorescence ratio was measured for TGTTACGGGG tested on ATP?;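 further: ATP exposure 15 min at 22 °C before imaging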
[A] 0.987
